system: DeltatarO mutant; assay: S. aureus survival, RN4220 and DeltatarO strains – OD600, teichoic acid synthesis inhibitors, primary screen (AID 463173); details: S. aureus RN4220 wild type/DeltatarO growth, OD600, 18 h, stronger effect = lower value, screened at 18.75 µg/mL (by protocol)
The whole screen tested about 52,000 compounds, of which about 4,300 (8.3%) were called active. Only a selection was taken, and actives are over-represented in it overall.
We label by threshold. Values of survival strictly beneath 80% are t. Values of 80% and up are f.

Please review the following examples before continuing.
-- ask Lab note: survival threshold 80%. Does this compound come in strictly under it? COc1ccc(Oc2c(C(F)(F)F)oc3c(CN4CCCC(C)C4)c(O)ccc3c2=O)cc1 (centres undefined)
-- reply t

-- ask Lab note: survival threshold 80%. Does this compound come in strictly under it? CCc1ccc(Oc2c(C(F)(F)F)oc3c(CN4CCCC(C)C4)c(O)ccc3c2=O)cc1 (centres undefined)
-- reply t

-- ask Lab note: survival threshold 80%. Does this compound come in strictly under it? CCN1CCN(Cc2c(O)ccc3c(=O)c(Oc4ccccc4C(C)C)c(C(F)(F)F)oc23)CC1
-- reply t

-- ask Lab note: survival threshold 80%. Does this compound come in strictly under it? CCN1CCN(Cc2c(O)ccc3c(=O)c(Oc4ccccc4Cl)c(C(F)(F)F)oc23)CC1
-- reply f

-- ask Lab note: survival threshold 80%. Does this compound come in strictly under it? CC1CCCN(Cc2c(O)ccc3c(=O)c(Oc4ccc(C(C)(C)C)cc4)c(C(F)(F)F)oc23)C1 (centres undefined)
-- reply t

***
-- ask Lab note: survival threshold 80%. Does this compound come in strictly under it? O=c1c(-c2ccc(Cl)cc2)c(C(F)(F)F)oc2c(CN3CCCCC3)c(O)ccc12
-- reply f

-- ask Lab note: survival threshold 80%. Does this compound come in strictly under it? CC1CCN(Cc2c(O)ccc3c(=O)c(-c4ccc(Cl)cc4)c(C(F)(F)F)oc23)CC1
-- reply t

-- ask Lab note: survival threshold 80%. Does this compound come in strictly under it? CC1CCCCN1Cc1c(O)ccc2c(=O)c(-c3ccccc3Cl)c(C(F)(F)F)oc12 (centres undefined)
-- reply t

-- ask Lab note: survival threshold 80%. Does this compound come in strictly under it? CC1CCCN(Cc2c(O)ccc3c(=O)c(Oc4ccccc4Cl)c(C(F)(F)F)oc23)C1 (centres undefined)
-- reply f

* * *

tested on: DeltatarO mutant; test: S. aureus survival, RN4220 and DeltatarO strains – OD600, teichoic acid synthesis inhibitors, primary screen (AID 463173); settings: S. aureus RN4220 wild type/DeltatarO growth, OD600, 18 h, stronger effect = lower value, screened at 18.75 µg/mL (by protocol)
In all, about 52,000 compounds went through this assay and about 4,300 (8.3%) were called active. Shown is part of a subset that was picked to be rich in actives.
reported-metric: survival

-- ask Hi! What's the reported survival for CCc1c(C)nc2cc(-c3cc(OC)cc(OC)c3)nn2c1NCCO on DeltatarO mutant?
-- reply 95% (inactive)

***
-- ask Hi! What's the reported survival for O=C(Nc1cc(Cl)cc(Cl)c1)c1ccc(F)c(S(=O)(=O)N2CCN(c3ccccc3F)CC2)c1 on DeltatarO mutant?
-- reply 84% (inactive)

-- ask Hi! What's the reported survival for COc1ccc(Cl)cc1N(C)C(=O)Cc1noc2ccc(C)cc12 on DeltatarO mutant?
-- reply 50% (inactive)

-- ask Hi! What's the reported survival for CCCCOC(=O)c1ccc(NC(=O)Cc2coc3c(C)c(C)ccc23)cc1 on DeltatarO mutant?
-- reply 79% (inactive)

-- ask Hi! What's the reported survival for Cc1ccc2onc(CC(=O)Nc3ccc(C(C)C)cc3)c2c1 on DeltatarO mutant?
-- reply 46% (active)

-- ask Hi! What's the reported survival for COC(=O)c1ccccc1NC(=O)Cc1noc2ccc(C)cc12 on DeltatarO mutant?
-- reply 39% (active)

-- ask Hi! What's the reported survival for CCOc1ccccc1NC(=O)Cc1noc2ccc(C)cc12 on DeltatarO mutant?
-- reply 48% (inactive)

-- ask Hi! What's the reported survival for CCOc1ccccc1NC(=O)NCc1noc2ccc(C)cc12 on DeltatarO mutant?
-- reply 35% (active)

-- ask Hi! What's the reported survival for COc1ccc2nc(N3CCN(C(=O)c4ccco4)CC3)sc2c1 on DeltatarO mutant?
-- reply 88% (inactive)

-- ask Hi! What's the reported survival for COc1cccc(NC(=O)C(=O)NCCc2csc(-c3ccc(C(F)(F)F)cc3)n2)c1 on DeltatarO mutant?
-- reply 94% (inactive)

-- ask Hi! What's the reported survival for COc1cc2[nH]c(=O)n(CCCCCC(=O)N3CCN(c4cccc(C(F)(F)F)c4)CC3)c(=O)c2cc1OC on DeltatarO mutant?
-- reply 83% (inactive)

* * *

test system: DeltatarO mutant; assay: S. aureus survival, RN4220 and DeltatarO strains – OD600, teichoic acid synthesis inhibitors, primary screen (AID 463173); settings: S. aureus RN4220 wild type/DeltatarO growth, OD600, 18 h, stronger effect = lower value, screened at 18.75 µg/mL (by protocol)
Out of some 52,000 compounds screened, about 4,300 (8.3%) were called active. This excerpt belongs to a sample that is enriched for actives.
We label by threshold. Values of survival strictly beneath 60% are MET. Values of 60% and up are NOT MET.

Please review the following examples before continuing.
-- ask Lab note: survival threshold 60%. Does this molecule come in strictly under it? COc1ccc(N2CCN(C(=O)CCn3c(=O)c4cccn4c4cccnc43)CC2)cc1
-- reply NOT MET

-- ask Lab note: survival threshold 60%. Does this molecule come in strictly under it? Cc1cc(Br)cc2c1N(Cc1ccccc1OC(C)C)C(=O)C2=O
-- reply MET

-- ask Lab note: survival threshold 60%. Does this molecule come in strictly under it? COc1ccccc1NC(=O)c1cc2c([nH]c1=O)CC(C)(C)CC2=O
-- reply NOT MET

-- ask Lab note: survival threshold 60%. Does this molecule come in strictly under it? COc1ccccc1CN1C(=O)C(=O)c2cccc(C)c21
-- reply NOT MET

-- ask Lab note: survival threshold 60%. Does this molecule come in strictly under it? CCN(c1ccc(C)cc1C)S(=O)(=O)c1nnc(NC(=O)CC(C)C)s1
-- reply NOT MET

-- ask Lab note: survival threshold 60%. Does this molecule come in strictly under it? Cc1cccc2c1N(Cc1ccccc1OCCC(C)C)C(=O)C2=O
-- reply MET

***
-- ask Lab note: survival threshold 60%. Does this molecule come in strictly under it? Cc1ccc(Nc2c(-c3cccc(Cl)c3)nc3cccc(C)n23)cc1
-- reply MET

-- ask Lab note: survival threshold 60%. Does this molecule come in strictly under it? CCCCNc1ccc(-c2nc(-c3ccco3)no2)cc1[N+](=O)[O-]
-- reply MET

-- ask Lab note: survival threshold 60%. Does this molecule come in strictly under it? O=C(CCn1c(=O)c2cccn2c2cccnc21)N1CCN(c2ccc(Cl)cc2)CC1
-- reply MET

-- ask Lab note: survival threshold 60%. Does this molecule come in strictly under it? CCCOc1ccc(CN2C(=O)C(=O)c3cccc(C)c32)cc1
-- reply MET

-- ask Lab note: survival threshold 60%. Does this molecule come in strictly under it? CCCNc1ccc(-c2nc(-c3ccco3)no2)cc1[N+](=O)[O-]
-- reply MET

-- ask Lab note: survival threshold 60%. Does this molecule come in strictly under it? Cc1ccc2c(c1)C(=O)C(=O)N2Cc1ccc(OCCC(C)C)cc1
-- reply NOT MET

-- ask Lab note: survival threshold 60%. Does this molecule come in strictly under it? COc1ccc(C2C(C(=O)Nc3cccnc3)=C(C)Nc3nc(-c4ccc(OC)c(OC)c4)nn32)cc1 (configuration not stated)
-- reply NOT MET

-- ask Lab note: survival threshold 60%. Does this molecule come in strictly under it? Cc1ccc(C)c(CN2C(=O)C(=O)c3ccccc32)c1
-- reply NOT MET

-- ask Lab note: survival threshold 60%. Does this molecule come in strictly under it? Cc1ccc(Cl)cc1N1CCN(C(=O)CCn2c(=O)c3cccn3c3cccnc32)CC1
-- reply MET

-- ask Lab note: survival threshold 60%. Does this molecule come in strictly under it? CCOc1ccc(CN2C(=O)C(=O)c3cccc(C)c32)cc1OC
-- reply NOT MET

-- ask Lab note: survival threshold 60%. Does this molecule come in strictly under it? COc1ccccc1CNc1ccc(-c2nc(-c3ccco3)no2)cc1[N+](=O)[O-]
-- reply MET

-- ask Lab note: survival threshold 60%. Does this molecule come in strictly under it? COc1cccc(N2C(=O)CSC23C(=O)N(Cc2ccccc2F)c2ccccc23)c1 (configuration not stated)
-- reply NOT MET

* * *

tested on: DeltatarO mutant; test: S. aureus survival, RN4220 and DeltatarO strains – OD600, teichoic acid synthesis inhibitors, primary screen (AID 463173); conditions: S. aureus RN4220 wild type/DeltatarO growth, OD600, 18 h, stronger effect = lower value, screened at 18.75 µg/mL (by protocol)
Out of some 52,000 compounds screened, about 4,300 (8.3%) were called active. Shown is part of a subset that was picked to be rich in actives.
reported-metric: survival (%)
Hi! Could you send only the number? It should be in %, unit omitted.

Example entries begin here.
-- ask Would you mind telling me what survival value was observed for Cc1ccc(S(=O)(=O)c2nnn3c2nc(NCCc2ccccc2)c2sccc23)cc1 ?
-- reply 65

-- ask Would you mind telling me what survival value was observed for Cc1ccccc1-n1nc(CO)c(C(=O)NCCc2ccccc2)n1 ?
-- reply 86

-- ask Would you mind telling me what survival value was observed for COc1ccc(C(=O)Nc2ccccc2C(=O)NC(C(=O)O)C(C)C)cc1 (configuration not stated) ?
-- reply 84

-- ask Would you mind telling me what survival value was observed for COc1ccc(CCNC(=O)C(C)n2nc(C)c3sc4ccccc4c3c2=O)cc1OC (configuration not stated) ?
-- reply 110

Continue with the molecule presented below.
-- ask Would you mind telling me what survival value was observed for COc1ccc(-c2cc(=O)oc3c4c(ccc23)OCN(Cc2cccc(OC)c2)C4)cc1 ?
-- reply 38

Data provenance is PubChem BioAssay AID463173.
